target system: human E3 ligase component cereblon (CRBN) (Homo sapiens (Human))
assay protocol: Cereblon (CRBN) target engagement, NanoBRET TE Intracellular E3 Ligase Assay in transfected HEK-293T cells
stated conditions: read-out: CRBN Binding EC50
pEC50: −log10 of the molar value.

{"compound": "O=C1CCC(N2Cc3cc(O[C@@H]4CCCC[C@@H]4N4CC(O)(c5ccccc5)C4)ccc3C2=O)C(=O)N1 (mixture of isomers)", "target system": "human E3 ligase component cereblon (CRBN) (Homo sapiens (Human))", "pEC50": 7.51}
{"compound": "N#Cc1cc(F)ccc1C1CN([C@H]2CCCC[C@H]2Oc2ccc3c(c2)CN(C2CCC(=O)NC2=O)C3=O)C1 (mixture of isomers) [Compound 102]", "target system": "human E3 ligase component cereblon (CRBN) (Homo sapiens (Human))", "pEC50": 7.62}
{"compound": "N#Cc1ccc(C2CN([C@H]3CCCC[C@H]3Oc3ccc4c(c3)CN(C3CCC(=O)NC3=O)C4=O)C2)c(Cl)c1 (stereo partly drawn)", "target system": "human E3 ligase component cereblon (CRBN) (Homo sapiens (Human))", "pEC50": 7.96}

====

target system: human E3 ligase component cereblon (CRBN) (Homo sapiens (Human), UniProt Q96SW2)
Sequence (Q96SW2 whole entry): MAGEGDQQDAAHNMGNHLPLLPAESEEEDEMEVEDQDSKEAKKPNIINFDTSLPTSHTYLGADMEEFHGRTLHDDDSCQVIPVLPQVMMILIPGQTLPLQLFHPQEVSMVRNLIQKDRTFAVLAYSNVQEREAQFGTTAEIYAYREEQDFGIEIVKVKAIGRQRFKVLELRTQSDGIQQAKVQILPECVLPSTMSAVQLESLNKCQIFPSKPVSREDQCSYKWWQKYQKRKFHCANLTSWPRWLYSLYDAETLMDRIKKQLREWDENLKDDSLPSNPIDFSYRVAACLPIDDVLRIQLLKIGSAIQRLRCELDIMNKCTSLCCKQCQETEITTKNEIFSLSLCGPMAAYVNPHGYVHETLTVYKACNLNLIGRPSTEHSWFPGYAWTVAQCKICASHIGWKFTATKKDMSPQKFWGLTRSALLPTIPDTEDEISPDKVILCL
Sequence (Q16531 whole entry partner): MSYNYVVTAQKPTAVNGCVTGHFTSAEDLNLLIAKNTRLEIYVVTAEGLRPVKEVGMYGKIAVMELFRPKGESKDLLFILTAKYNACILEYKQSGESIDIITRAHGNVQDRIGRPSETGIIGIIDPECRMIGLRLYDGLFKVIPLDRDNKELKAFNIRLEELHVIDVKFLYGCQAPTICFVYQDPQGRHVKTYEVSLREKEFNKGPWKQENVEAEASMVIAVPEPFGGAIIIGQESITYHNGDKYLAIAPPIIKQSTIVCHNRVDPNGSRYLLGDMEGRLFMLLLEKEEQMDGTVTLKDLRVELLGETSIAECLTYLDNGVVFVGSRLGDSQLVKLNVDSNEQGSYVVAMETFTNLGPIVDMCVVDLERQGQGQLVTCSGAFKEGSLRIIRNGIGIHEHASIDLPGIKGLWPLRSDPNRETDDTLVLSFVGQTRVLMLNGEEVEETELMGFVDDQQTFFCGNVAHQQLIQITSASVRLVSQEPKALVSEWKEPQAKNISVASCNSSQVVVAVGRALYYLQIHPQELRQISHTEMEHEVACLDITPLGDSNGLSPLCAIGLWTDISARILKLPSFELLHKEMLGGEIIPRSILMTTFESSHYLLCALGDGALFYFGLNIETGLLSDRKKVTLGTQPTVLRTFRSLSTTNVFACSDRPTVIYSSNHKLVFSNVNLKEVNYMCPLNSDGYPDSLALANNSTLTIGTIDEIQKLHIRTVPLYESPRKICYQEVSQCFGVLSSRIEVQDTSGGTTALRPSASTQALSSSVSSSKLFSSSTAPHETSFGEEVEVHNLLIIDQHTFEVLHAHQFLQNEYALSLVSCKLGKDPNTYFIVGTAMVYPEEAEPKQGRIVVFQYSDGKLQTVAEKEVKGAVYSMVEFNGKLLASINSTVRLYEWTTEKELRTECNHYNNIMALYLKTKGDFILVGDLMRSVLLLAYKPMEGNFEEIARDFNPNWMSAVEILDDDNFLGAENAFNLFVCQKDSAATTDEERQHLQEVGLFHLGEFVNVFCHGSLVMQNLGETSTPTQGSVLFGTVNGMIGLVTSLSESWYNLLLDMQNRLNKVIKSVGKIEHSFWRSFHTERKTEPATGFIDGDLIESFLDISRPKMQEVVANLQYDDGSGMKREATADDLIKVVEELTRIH
assay protocol: Cereblon (CRBN) target engagement, NanoBRET TE Intracellular E3 Ligase Assay in transfected HEK-293T cells
stated conditions: read-out: CRBN Binding EC50
pEC50: −log10 of the molar value.
Each record here notes measured pEC50.
measured property: pEC50

{"compound": "N#Cc1ccc(C2CN(C3CCCCC3Oc3ccc4c(c3)CN(C3CCC(=O)NC3=O)C4=O)C2)cc1 (stereo not drawn)", "target system": "human E3 ligase component cereblon (CRBN) (Homo sapiens (Human), UniProt Q96SW2)", "measured property": "pEC50", "quantitative readout": 7.51}
{"compound": "N#Cc1cc(F)ccc1C1CN([C@@H]2CCCC[C@H]2Oc2ccc3c(c2)CN(C2CCC(=O)NC2=O)C3=O)C1 (single isomer, unassigned)", "target system": "human E3 ligase component cereblon (CRBN) (Homo sapiens (Human), UniProt Q96SW2)", "measured property": "pEC50", "quantitative readout": 7.38}
{"compound": "O=C1CCC(N2Cc3c(ccc(O[C@H]4CCCC[C@@H]4N4CC(c5ccccc5)C4)c3F)C2=O)C(=O)N1 (single isomer, unassigned) [Compound 66]", "target system": "human E3 ligase component cereblon (CRBN) (Homo sapiens (Human), UniProt Q96SW2)", "measured property": "pEC50", "quantitative readout": 7.62}
{"compound": "O=C1CCC(N2Cc3cc(O[C@@H]4CCCC[C@@H]4N4CC(c5ccc(C(F)(F)F)cc5)C4)ccc3C2=O)C(=O)N1 (stereo partly drawn)", "target system": "human E3 ligase component cereblon (CRBN) (Homo sapiens (Human), UniProt Q96SW2)", "measured property": "pEC50", "quantitative readout": 7.96}
{"compound": "O=C1CCC(N2Cc3c(ccc(O[C@H]4CCCC[C@@H]4N4CC(c5ccccc5)C4)c3Cl)C2=O)C(=O)N1 (single isomer, unassigned) [Compound 42]", "target system": "human E3 ligase component cereblon (CRBN) (Homo sapiens (Human), UniProt Q96SW2)", "measured property": "pEC50", "quantitative readout": 7.37}
{"compound": "O=C1CCC(N2Cc3c(ccc(O[C@H]4CCCC[C@@H]4N4CC(c5ccccc5)C4)c3Cl)C2=O)C(=O)N1 (single isomer, unassigned) [Compound 41]", "target system": "human E3 ligase component cereblon (CRBN) (Homo sapiens (Human), UniProt Q96SW2)", "measured property": "pEC50", "quantitative readout": 7.21}

====

target system: human E3 ligase component cereblon (CRBN) (Homo sapiens (Human))
assay protocol: Cereblon (CRBN) target engagement, NanoBRET TE Intracellular E3 Ligase Assay in transfected HEK-293T cells
stated conditions: read-out: CRBN Binding EC50
Each record here notes measured EC50.
measured property: EC50 (nM)

{"compound": "N#Cc1cc(Cl)ccc1C1CN([C@H]2CCCC[C@@H]2Oc2ccc3c(c2)CN(C2CCC(=O)NC2=O)C3=O)C1 (single isomer, unassigned) [Compound 39]", "value prefix": "=", "quantitative readout": 8}
{"compound": "O=C1CCC(N2Cc3cc(O[C@H]4CCCC[C@@H]4N4CC(c5ccccc5)C4)c(F)cc3C2=O)C(=O)N1 (single isomer, unassigned) [Compound 53]", "value prefix": "=", "quantitative readout": 29}
{"compound": "O=C1CCC(N2Cc3cc(O[C@H]4CCCC[C@@H]4N4CC(c5ccccc5)C4)c(F)cc3C2=O)C(=O)N1 (single isomer, unassigned) [Compound 52]", "value prefix": "=", "quantitative readout": 11}
{"compound": "N#Cc1cc(Cl)ccc1C1CN([C@H]2CCCC[C@@H]2Oc2ccc3c(c2)CN(C2CCC(=O)NC2=O)C3=O)C1 (mixture of isomers) [Compound 99]", "value prefix": "=", "quantitative readout": 44}
{"compound": "N#Cc1cc(F)ccc1C1CN([C@@H]2CCC[C@H]2Oc2ccc3c(c2)CN(C24CC(C2)C(=O)NC4=O)C3=O)C1 (racemic)", "value prefix": "=", "quantitative readout": 37}
{"compound": "N#Cc1cc(F)ccc1C1CN([C@H]2CCCC[C@@H]2Oc2ccc3c(c2)CN(C2CCC(=O)NC2=O)C3=O)C1 (mixture of isomers) [Compound 101]", "value prefix": "=", "quantitative readout": 33}
{"compound": "N#Cc1ccccc1C1CN([C@H]2CCCC[C@@H]2Oc2ccc3c(c2)CN(C24CC(C2)C(=O)NC4=O)C3=O)C1 (racemic)", "value prefix": ">", "quantitative readout": 10000}
{"compound": "O=C1CCC(N2Cc3cc(O[C@H]4CCCC[C@@H]4N4CC(c5ccc(F)cc5)C4)ccc3C2=O)C(=O)N1 (single isomer, unassigned) [Compound 51]", "value prefix": "=", "quantitative readout": 18}
{"compound": "O=C1CCC(N2Cc3cc(O[C@H]4CCCC[C@@H]4N4CC(c5ccc(O)cc5)C4)ccc3C2=O)C(=O)N1 (some centres unmarked)", "value prefix": "=", "quantitative readout": 11}
{"compound": "O=C1CCC(N2Cc3cc(O[C@H]4CCCC[C@@H]4N4CC(c5ccc(OC(F)F)cc5)C4)ccc3C2=O)C(=O)N1 (some centres unmarked)", "value prefix": "=", "quantitative readout": 9}
{"compound": "O=C1CCC(N2Cc3cc(O[C@H]4CCC[C@@H]4N4CC(c5ccccc5)C4)ccc3C2=O)C(=O)N1 (some centres unmarked)", "value prefix": "=", "quantitative readout": 11}
{"compound": "O=C1CCC(N2Cc3cc(O[C@H]4CCCC[C@@H]4N4CC(c5ccc(N6CCOCC6)cc5)C4)ccc3C2=O)C(=O)N1 (some centres unmarked)", "value prefix": "=", "quantitative readout": 2}
{"compound": "O=C1NC(=O)C2(N3Cc4cc(O[C@H]5CCC[C@@H]5N5CC(c6ccccc6Cl)C5)ccc4C3=O)CC1C2", "value prefix": "=", "quantitative readout": 921}
{"compound": "N#Cc1cccc(C2CN([C@H]3CCCC[C@@H]3Oc3ccc4c(c3)CN(C35CC(C3)C(=O)NC5=O)C4=O)C2)c1 (racemic)", "value prefix": ">", "quantitative readout": 10000}
{"compound": "N#Cc1cc(F)ccc1C1CN([C@H]2CCCC[C@H]2Oc2ccc3c(c2)CN(C2CCC(=O)NC2=O)C3=O)C1 (some centres unmarked) [Compound 46]", "value prefix": "=", "quantitative readout": 22}
{"compound": "N#Cc1cc(Cl)ccc1C1CN([C@H]2CCC[C@@H]2Oc2ccc3c(c2)CN(C2CCC(=O)NC2=O)C3=O)C1 (mixture of isomers)", "value prefix": "=", "quantitative readout": 36}
{"compound": "O=C1CCC(N2Cc3cc(O[C@H]4CCCC[C@H]4N4CC(c5cccc(C(F)(F)F)c5)C4)ccc3C2=O)C(=O)N1 (mixture of isomers)", "value prefix": "=", "quantitative readout": 15}
{"compound": "N#Cc1cccc(C2CN([C@H]3CCCC[C@@H]3Oc3ccc4c(c3)CN(C3CCC(=O)NC3=O)C4=O)C2)c1 (some centres unmarked)", "value prefix": "=", "quantitative readout": 13}
{"compound": "O=C1CCC(N2Cc3cc(O[C@H]4CCC[C@@H]4N4CCC(c5ccccc5)CC4)ccc3C2=O)C(=O)N1 (some centres unmarked)", "value prefix": "=", "quantitative readout": 7}
{"compound": "COc1cccc(C2CN([C@H]3CCCC[C@@H]3Oc3ccc4c(c3)CN(C3CCC(=O)NC3=O)C4=O)C2)c1 (some centres unmarked)", "value prefix": "=", "quantitative readout": 5}
{"compound": "O=C1CCC(N2Cc3cc(O[C@H]4CCCC[C@@H]4N4CCC4c4ccccc4)ccc3C2=O)C(=O)N1 (some centres unmarked)", "value prefix": "=", "quantitative readout": 158}
{"compound": "O=C1CCC(N2Cc3cc(O[C@H]4CCCC[C@@H]4N4CCC(c5ccccc5)CC4)ccc3C2=O)C(=O)N1 (some centres unmarked)", "value prefix": "=", "quantitative readout": 12}
{"compound": "O=C1CCC(N2Cc3cc(O[C@@H]4CCCC[C@@H]4N4CC(c5ccc(OC(F)(F)F)cc5)C4)ccc3C2=O)C(=O)N1 (mixture of isomers)", "value prefix": "=", "quantitative readout": 14}
{"compound": "N#Cc1ccccc1C1CN([C@H]2CCCC[C@H]2Oc2ccc3c(c2)CN(C24CC(C2)C(=O)NC4=O)C3=O)C1 (racemic)", "value prefix": ">", "quantitative readout": 10000}
{"compound": "O=C1CCC(N2Cc3cc(O[C@H]4CCCC[C@H]4N4CC(c5ccccc5)C4)ccc3C2=O)C(=O)N1 (some centres unmarked)", "value prefix": "=", "quantitative readout": 18}
{"compound": "O=C1CCC(N2Cc3cc(O[C@H]4CCC[C@@H]4N4CC(c5ccc(-n6cccn6)cc5)C4)ccc3C2=O)C(=O)N1 (some centres unmarked)", "value prefix": "=", "quantitative readout": 5}
